Tested on: Tetranychus cinnabarinus mite eggs
Experiment: Activity against mite eggs, dipping method on bean seedling leaves
Format: in vivo
Details: Tetranychus cinnabarinus, 96 h, read-out: mortality of mite eggs (%), 100 mg/L; checked after 4 days
Source text: The assay examples are used to illustrate the acaricidal activity against Tetranychus cinnabarinus (mortality of mite larvae and mortality of mite eggs) of the compounds having the structure represented by formula (I), and the results are shown in tables 1 to 9, where mortality of mite larvae % =(number of dead mite larvae applied/total number of mite larvae applied)×100, and mortality of mite eggs %= (number of dead mite eggs applied/total number of mite eggs applied)×100. […]
parameter-measured: mortality at 100 µg/mL (%)
Lab book: enter the figure in %, no units written.

A selection of reference data follows.
Fill blank: measured mortality at 100 µg/mL of the molecule Fc1cccc(F)c1C1=NC(c2ccc(COCC(F)(F)F)cc2)CO1 (centres unmarked) [Compound R2-5] is ____.
100

Param item: O=C1c2ccccc2C(=O)N1Cc1ccc(C2COC(c3c(F)cccc3F)=N2)cc1 (centres unmarked) [Compound R1-10]
100

Please give the result for CS(=O)(=O)Oc1ccc(C2COC(c3c(F)cccc3F)=N2)cc1 (centres unmarked) [Compound R3-1] too.
95

Also check Cc1ccc(OCc2ccc(C3COC(c4c(F)cccc4F)=N3)cc2)cc1 (centres unmarked) [Compound R2-22]
100

Another molecule to look at: Fc1cccc(F)c1C1=NC(c2ccc(COCc3ccco3)cc2)CO1 (centres unmarked) [Compound R2-10]
100

Further cases:
# input molecule: Fc1cccc(F)c1C1=NC(c2ccc(CN3CCCCCC3)cc2)CO1 (centres unmarked) [Compound R1-2] ; wanted: its mortality at 100 µg/mL
80

Further, for CC(C)(C)c1ccc(S(=O)(=O)Oc2ccc(C3COC(c4c(F)cccc4F)=N3)cc2)cc1 (centres unmarked) [Compound R3-17] ?
100

Follow-up entry: Fc1cccc(F)c1C1=NC(c2ccc(COc3ccncn3)cc2)CO1 (centres unmarked) [Compound R2-16]
100

Next up: Fc1cccc(F)c1C1=NC(c2ccc(CN3CCCC3)cc2)CO1 (centres unmarked) [Compound R1-1]
70

Next molecule up: Fc1cccc(F)c1C1=NC(c2ccc(COCC3CCCO3)cc2)CO1 (centres unmarked) [Compound R2-9]
100

Try this molecule next: Fc1ccc(OCc2ccc(C3COC(c4c(F)cccc4F)=N3)cc2)cc1 (centres unmarked) [Compound R2-18]
100

Next molecule: Fc1cccc(F)c1C1=NC(c2ccc(Cn3ccc4ccccc43)cc2)CO1 (centres unmarked) [Compound R1-15]
100

Okay, and Fc1cccc(F)c1C1=NC(c2ccc(Cn3cccc3)cc2)CO1 (centres unmarked) [Compound R1-5] ?
100

Continue with O=S(=O)(Oc1ccc(C2COC(c3c(F)cccc3F)=N2)cc1)c1ccc(F)c(F)c1F (centres unmarked) [Compound R3-15]
100

And N#Cc1ccc(S(=O)(=O)Oc2ccc(C3COC(c4c(F)cccc4F)=N3)cc2)cc1 (centres unmarked) [Compound R3-22] ?
90

Record: O=S(=O)(Oc1ccc(C2COC(c3c(F)cccc3F)=N2)cc1)c1ccc(C(F)(F)F)cc1 (centres unmarked) [Compound R3-13]
100

Continue with Fc1cccc(F)c1C1=NC(c2ccc(COc3ccc(Br)cc3)cc2)CO1 (centres unmarked) [Compound R2-20]
100
